Recorded values, source ChEMBL document CHEMBL1135838.

- tgt: Alpha-1A adrenergic receptor (Homo sapiens) (UniProt P35348)
- Sequence (whole entry): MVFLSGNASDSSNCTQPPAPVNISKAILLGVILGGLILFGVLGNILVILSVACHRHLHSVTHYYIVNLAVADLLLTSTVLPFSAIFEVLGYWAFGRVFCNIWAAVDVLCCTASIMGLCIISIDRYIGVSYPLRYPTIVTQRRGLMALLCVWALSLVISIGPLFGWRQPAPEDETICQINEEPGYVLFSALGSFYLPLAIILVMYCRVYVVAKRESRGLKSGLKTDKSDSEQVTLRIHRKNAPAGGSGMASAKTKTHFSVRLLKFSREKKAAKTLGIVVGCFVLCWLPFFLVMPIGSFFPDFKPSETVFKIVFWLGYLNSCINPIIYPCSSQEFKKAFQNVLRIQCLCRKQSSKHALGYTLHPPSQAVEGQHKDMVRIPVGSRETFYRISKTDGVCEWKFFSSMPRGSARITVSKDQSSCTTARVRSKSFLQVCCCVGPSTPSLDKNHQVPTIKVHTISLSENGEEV
- protocolDescription: Ability to activate cloned human alpha-1A receptor expressed in rat-1 fibroblasts via calcium mobilization through Gq coupled PLC pathway expressed as percent of phenylephrine (40 uM) response
- Assay type: functional
valueType: Max (%)
Unit % implied. Number only.

// worked examples, Max included
Cn1nccc1-c1ccccc1OCC1=NCCN1; 107
c1ccc(-c2ccsc2)c(OCC2=NCCN2)c1; 98
c1ccc(-c2ncc[nH]2)c(OCC2=NCCN2)c1; 122
Cc1ccoc1-c1ccccc1OCC1=NCCN1; 99

Record c1ccc(-c2cc[nH]n2)c(OCC2=NCCN2)c1 , field Max: 119

Record Cc1cnsc1-c1ccccc1OCC1=NCCN1 , field Max: 104

----------
- tgt: Alpha-1B adrenergic receptor (Homo sapiens, UniProt P35368)
- Sequence (P35368 whole entry): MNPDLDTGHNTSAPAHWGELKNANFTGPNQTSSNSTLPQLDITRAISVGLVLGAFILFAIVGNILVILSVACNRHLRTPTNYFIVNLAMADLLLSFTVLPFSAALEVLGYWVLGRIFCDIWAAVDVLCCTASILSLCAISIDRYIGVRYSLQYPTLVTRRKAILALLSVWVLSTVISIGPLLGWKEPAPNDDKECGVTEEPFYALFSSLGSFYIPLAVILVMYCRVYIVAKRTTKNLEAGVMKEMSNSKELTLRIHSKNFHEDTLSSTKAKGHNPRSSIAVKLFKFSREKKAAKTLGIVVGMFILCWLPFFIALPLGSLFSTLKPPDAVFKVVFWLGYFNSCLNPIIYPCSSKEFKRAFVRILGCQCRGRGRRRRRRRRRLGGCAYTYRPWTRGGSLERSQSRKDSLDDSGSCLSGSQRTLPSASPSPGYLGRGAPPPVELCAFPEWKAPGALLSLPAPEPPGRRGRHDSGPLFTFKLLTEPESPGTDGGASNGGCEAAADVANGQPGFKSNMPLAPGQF
- protocolDescription: Binding affinity of compound towards human Alpha-1B adrenergic receptor expressed in rat fibroblast membranes
// reported pIC50 for each item listed
Expect pIC50 as a plain number equal to -log10 of the molar concentration.

Cc1ccoc1-c1ccccc1OCC1=NCCN1; 6.11
c1ccc(-c2ccccc2OCC2=NCCN2)nc1; 5.69
c1c[nH]c(-c2ccccc2OCC2=NCCN2)c1; 6.57
Cc1ccnc(-c2ccccc2OCC2=NCCN2)c1; 5.61
c1cncc(-c2ccccc2OCC2=NCCN2)c1; 5.89

// next entry
Record c1ccc(-c2ccccc2OCC2=NCCN2)cc1 , field pIC50: 6.13

----------
- tgt: Alpha-1A adrenergic receptor (Homo sapiens) (UniProt P35348)
- protocolDescription: Ability to activate cloned human alpha-1A receptor expressed in rat-1 fibroblasts via calcium mobilization through Gq coupled PLC pathway expressed as percent of phenylephrine (40 uM) response
- Format: functional
// reported Max for each item listed
Just so you know, I need the unit written after the number.

Cc1ccc(-c2ccccc2OCC2=NCCN2)s1; 97%
Cc1cccc(-c2ccccc2OCC2=NCCN2)n1; 80%
c1c[nH]c(-c2ccccc2OCC2=NCCN2)c1; 99%

Reading of Max for c1csc(-c2ccccc2OCC2=NCCN2)c1 with Alpha-1A adrenergic receptor (Homo sapiens) (UniProt P35348): 101%

Reading of Max for c1ccc(-c2ccoc2)c(OCC2=NCCN2)c1 with Alpha-1A adrenergic receptor (Homo sapiens) (UniProt P35348): 104%

Reading of Max for c1cnc(-c2ccccc2OCC2=NCCN2)nc1 with Alpha-1A adrenergic receptor (Homo sapiens) (UniProt P35348): 90%

Reading of Max for CS(=O)(=O)Nc1ccc(F)c([C@@H](O)CN)c1 [NS-49] with Alpha-1A adrenergic receptor (Homo sapiens) (UniProt P35348): 86%

Reading of Max for Cc1cc(-c2ccccc2OCC2=NCCN2)sn1 with Alpha-1A adrenergic receptor (Homo sapiens) (UniProt P35348): 75%
